Experiment: photoluminescence quantum yield (fraction); solvent given as SMILES
Details: in ClC(Cl)Cl
measured_attribute: photoluminescence quantum yield

COC(=O)C(Cc1ccc2oc(-c3ccc(N(C)c4ccccc4)cc3)nc2c1)NC(=O)OC(C)(C)C (centres undefined) ... 0.58
CCCCN1C(=O)c2ccc3c4c(Br)cc5c6c(ccc(c7c(Br)cc(c2c37)C1=O)c64)C(=O)N(CCCC)C5=O ... 0.73

a = CCCCCCN1C(=O)c2cccc3c(-c4scc5c4OCCO5)ccc(c23)C1=O
b = CCOC(=O)/C=C/C1=C(c2ccc(C)cc2)C2=Nc3c(-c4ccc(C)cc4)c(Br)c(-c4ccc(C)cc4)n3[B-](F)(F)[N+]2=C1c1ccc(C)cc1
input: In the pair a and b , the larger recorded photoluminescence quantum yield belongs to which? Label of pick, please.
output: a
(a: 0.61, b: 0.03)

* * *

Assay: photoluminescence quantum yield (fraction); solvent given as SMILES
Conditions: in ClCCl
measured_attribute: photoluminescence quantum yield

// below: answered molecules
O=C1c2ccccc2-c2c(-c3cc(Cl)ccc3O)[nH]c(=O)n21 ... 0.78
CC[C@H](C)[C@H](Nc1c(C(C)=O)c(=O)oc2cc(N(C)C)ccc12)C(=O)O ... 0.0031
N#CC(C#N)=Cc1ccc2c(c1)c1ccccc1n2-c1cccc2ccccc12 ... 0.05
CCCOc1ccc(/C=C/C=C/C=C/c2ccc([N+](=O)[O-])cc2)cc1 ... 0.06
F[B-]1(F)n2c(c3ccccc3c2-c2ccccc2)N=C2c3ccccc3C(c3ccccc3)=[N+]21 ... 0.14
c1ccc(-c2nc3c(c4c2-c2ccccc2CC4)-c2ccccc2CC3)cc1 ... 0.01

I = Cc1cc2c3ccccc3[nH]c2c2[nH]c3ccccc3c12
II = CC(C)(C)c1ccc(-c2cc(-c3ccc(-c4cc(-c5ccc(C(C)(C)C)cc5)c(C(=O)N5CCOCC5)s4)s3)sc2C(=O)N2CCOCC2)cc1
input: Just tell me: smaller photoluminescence quantum yield value, I or II ? Label of pick, please.
output: I
(I: 0.075, II: 0.26)

* * *

Experiment: photoluminescence quantum yield (fraction); solvent given as SMILES
Details: in C1COCCO1
measured_attribute: photoluminescence quantum yield

Cc1ccc(C2=C3C=CC(C#Cc4ccccc4)=[N+]3[B-](F)(F)n3c(Cl)ccc32)cc1 ... 0.97
COC(=O)c1nc2c(OCc3ccccc3)nc(N)nc2n1Cc1ccccc1 ... 0.95
CN(C)c1ccc2nc(/C=C/c3ccccc3)c(=O)oc2c1 ... 0.79
O=CN1N=C(c2ccc(Br)cc2)C[C@@H]1c1ccccc1 ... 0.25
CCCCN1c2ccccc2Sc2cc(/C=C/C3=Nc4ccc5ccccc5c4C3(C)C)ccc21 ... 0.17
c1ccc2c(c1)[nH]c1cccnc12 ... 0.122

1 = CCC12C(=C3C(=C4c5ccc(-c6ccc(C(C)=O)cc6)cc5S(=O)(=O)C41CC)C(F)(F)C(F)(F)C3(F)F)c1ccc(-c3ccc(C(C)=O)cc3)cc1S2(=O)=O (stereo not given)
2 = CC(C)(C)c1cc(-c2ccc(-c3cc(C(C)(C)C)cc(C(C)(C)C)c3)cc2)cc(C(C)(C)C)c1
input: Just tell me: smaller photoluminescence quantum yield value, 1 or 2 ? Label of pick, please.
output: 2

* * *

Test: photoluminescence quantum yield (fraction); solvent given as SMILES
Conditions: in ClCCl
measured_attribute: photoluminescence quantum yield

1 = N#CC(C#N)=Cc1ccc2c(c1)c1cc(C=C(C#N)C#N)ccc1n2-c1cccc2ccccc12
2 = CN(C)c1ccc(N2c3sc4ccccc4c3Sc3c2sc2ccccc32)cc1
input: Just tell me: smaller photoluminescence quantum yield value, 1 or 2 ? Label of pick, please.
output: 1
(1: 0.07, 2: 0.19)

1 = CCCc1ccc(C#Cc2ccc3nc4ccc(C#Cc5ccc(CCC)cc5)cn4c(=O)c3c2)cc1
2 = CC(C)[Si](C#Cc1ccc(C#Cc2c3cc4ccccc4cc3c(C#C[Si](C(C)C)(C(C)C)C(C)C)c3cc4ccccc4cc23)cc1)(C(C)C)C(C)C
3 = C(=C\c1nc(/C=C/c2ccc(N(c3ccccc3)c3ccccc3)cc2)cc(/C=C/c2ccc(N(c3ccccc3)c3ccccc3)cc2)n1)/c1ccccc1
input: Would you mind ranking these molecules by ascending photoluminescence quantum yield? Submit the labels in the order that the ranking request calls for.
output: 2, 1, 3

a = O=C(O)CC[N+]1=c2cc3c(cc2CCC1)=Cc1c(c2cc4c5c(c2oc1=O)CCCN5CCC4)O3
b = COCCOCCOCCOc1ccc(/C=C/C2=[N+]3C(=C(c4cc(OC)cc(OC)c4)c4c(C)c(I)c(/C=C/c5ccc(OCCOCCOCCOC)cc5)n4[B-]3(F)F)C(C)=C2I)cc1
c = CN(C)c1ccc(-c2cc3c(s2)c(C(=O)c2ccccc2)cc(=O)n3Cc2ccccc2)cc1
input: Would you mind ranking these molecules by ascending photoluminescence quantum yield? Submit the labels in the order that the ranking request calls for.
output: c, a, b
(c: 0.01, a: 0.163, b: 0.24)

P = COc1ccc2c(c1)CCC1=C(C#Cc3ccc(Cl)cc3)O[B-](F)(F)[O+]=C12
Q = COc1cc2c(cc1OC)C1=C[C@H](c3ccc(Cl)cc3)C3(C(C#N)=C(C#N)N1CC2)c1cc(Cl)ccc1-c1ccc(Cl)cc13
R = COc1cc2cc(OC)c(-c3ccc([N+](=O)[O-])cc3)cc2cc1-c1ccc([N+](=O)[O-])cc1
S = CC[C@H](C)COc1ccc(C2=C3C(C)=C(I)C(C)=[N+]3[B-](F)(F)n3c(C)c(I)c(C)c32)cc1
input: # rank_down: sort by photoluminescence quantum yield, max first Submit the labels in the order that the ranking request calls for.
output: P, S, R, Q
(P: 0.72, S: 0.06, R: 0.009, Q: 0.00065)
